Target: SMARCA2 (Homo sapiens, UniProt P51531)
Sequence (P51531 whole entry): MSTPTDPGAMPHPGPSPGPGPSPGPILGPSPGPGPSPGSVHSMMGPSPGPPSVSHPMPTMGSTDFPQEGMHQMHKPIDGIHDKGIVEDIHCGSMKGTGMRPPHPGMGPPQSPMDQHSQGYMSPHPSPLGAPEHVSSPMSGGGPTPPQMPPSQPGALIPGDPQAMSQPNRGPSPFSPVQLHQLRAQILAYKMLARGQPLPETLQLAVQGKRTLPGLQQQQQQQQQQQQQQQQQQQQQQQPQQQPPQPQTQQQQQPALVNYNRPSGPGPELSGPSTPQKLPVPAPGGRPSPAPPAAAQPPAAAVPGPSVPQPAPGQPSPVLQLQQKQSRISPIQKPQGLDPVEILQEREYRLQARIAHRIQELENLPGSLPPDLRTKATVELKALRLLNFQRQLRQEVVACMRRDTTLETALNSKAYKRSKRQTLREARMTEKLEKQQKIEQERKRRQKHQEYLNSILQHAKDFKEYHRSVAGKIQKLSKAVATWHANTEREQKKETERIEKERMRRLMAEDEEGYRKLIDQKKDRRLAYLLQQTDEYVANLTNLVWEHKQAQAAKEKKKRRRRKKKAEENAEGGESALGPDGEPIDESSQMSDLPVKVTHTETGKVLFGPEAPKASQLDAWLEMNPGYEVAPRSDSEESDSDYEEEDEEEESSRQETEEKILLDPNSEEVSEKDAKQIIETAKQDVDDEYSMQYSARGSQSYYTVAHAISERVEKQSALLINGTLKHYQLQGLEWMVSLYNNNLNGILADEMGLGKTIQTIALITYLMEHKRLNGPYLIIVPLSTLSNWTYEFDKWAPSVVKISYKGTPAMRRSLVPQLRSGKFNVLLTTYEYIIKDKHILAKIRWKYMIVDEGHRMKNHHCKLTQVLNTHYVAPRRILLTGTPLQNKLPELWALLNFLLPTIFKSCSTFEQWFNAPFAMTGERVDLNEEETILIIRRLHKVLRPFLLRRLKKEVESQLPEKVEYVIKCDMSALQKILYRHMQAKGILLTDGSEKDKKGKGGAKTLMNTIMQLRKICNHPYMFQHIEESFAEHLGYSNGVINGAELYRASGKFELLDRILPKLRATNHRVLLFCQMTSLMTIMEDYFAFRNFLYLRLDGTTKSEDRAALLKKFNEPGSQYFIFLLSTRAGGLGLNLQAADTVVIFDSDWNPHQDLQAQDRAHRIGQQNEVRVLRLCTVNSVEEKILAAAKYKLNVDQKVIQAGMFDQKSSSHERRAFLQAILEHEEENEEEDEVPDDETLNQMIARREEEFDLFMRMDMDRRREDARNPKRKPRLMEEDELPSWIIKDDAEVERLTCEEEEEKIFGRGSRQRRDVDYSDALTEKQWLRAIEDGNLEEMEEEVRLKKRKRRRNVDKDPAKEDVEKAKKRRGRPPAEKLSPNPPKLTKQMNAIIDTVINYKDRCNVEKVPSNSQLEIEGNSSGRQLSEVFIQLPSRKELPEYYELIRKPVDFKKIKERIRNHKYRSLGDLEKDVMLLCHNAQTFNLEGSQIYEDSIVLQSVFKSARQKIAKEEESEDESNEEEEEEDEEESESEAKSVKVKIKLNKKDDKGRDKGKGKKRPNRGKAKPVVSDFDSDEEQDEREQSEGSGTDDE
Assay: SMARCA2 Western blot degradation in MV4-11 cells
Format: cell-based
Design: SMARCA2/SMARCA4 protein degradation selectivity in MV4-11 cells; endogenous in cells; host or cells: MV4-11
Settings: MV4-11, MV4-11 cells, 24 h; read-out: SMARCA2 MSD MV411 degradation 24 h: average Dmax %
Reported Dmax values follow for various compounds
Measured attribute: Dmax

compound="C#Cc1ccc(CNC(=O)[C@@H]2C[C@@H](O)CN2C(=O)[C@@H](NC(=O)[C@H]2CCC3(CC2)C[C@H](N2CCC(N4CCC(N5CCN6c7cc(-c8ccccc8O)nnc7NC[C@H]6C5)CC4)CC2)C3)C(C)(C)C)c(F)c1 (some centres unmarked)" measured_value="50 to 70%"
compound=C#Cc1ccc(CNC(=O)[C@@H]2C[C@@H](O)CN2C(=O)[C@@H](NC(=O)N2CC3(CC(N4CCC([C@H]5CC[C@H](N6CCc7[nH]c8nnc(-c9ccccc9O)cc8c7[C@H]6C)CC5)CC4)C3)C2)C(C)(C)C)cc1 measured_value="< 50%"
compound=C#Cc1ccc(CNC(=O)[C@@H]2C[C@@H](O)CN2C(=O)[C@@H](NC(=O)C2CC3(C2)CN(c2cnc(N4CCC(N5CCN6c7cc(-c8ccccc8O)nnc7NC[C@H]6C5)CC4)cn2)C3)C(C)(C)C)cc1 measured_value="> 90%"
compound="C#Cc1ccc(CNC(=O)[C@@H]2C[C@@H](O)CN2C(=O)[C@@H](NC(=O)[C@H]2CC3(C2)C[C@H](N2CCN(C(=O)CCN4CCN5c6cc(-c7ccccc7O)nnc6NC[C@H]5C4)CC2)C3)C(C)(C)C)cc1 (some centres unmarked)" measured_value="> 90%"
compound=C#Cc1ccc(CNC(=O)[C@@H]2C[C@@H](O)CN2C(=O)[C@@H](NC(=O)N2CC3(CC(CN4CCC(N5CCC(N6CCc7[nH]c8nnc(-c9ccccc9O)cc8c7[C@H]6C)CC5)CC4)C3)C2)C(C)(C)C)cc1 measured_value="50 to 70%"
compound="C#Cc1ccc([C@H](C)NC(=O)[C@@H]2C[C@@H](O)CN2C(=O)[C@@H](NC(=O)[C@H]2CCC3(CC2)C[C@H](N2CCC(c4cnc(N5CCN6c7cc(-c8ccccc8O)nnc7NC[C@H]6C5)nc4)CC2)C3)C(C)(C)C)cc1 (single isomer, unassigned)" measured_value="70 to 90%"
compound="C#Cc1ccc(CNC(=O)[C@@H]2C[C@@H](O)CN2C(=O)[C@@H](NC(=O)[C@H]2CCC3(CC2)C[C@H](N2CCC(N4CC5(CC(N6CCN7c8cc(-c9ccccc9O)nnc8NC[C@H]7C6)C5)C4)CC2)C3)C(C)(C)C)cc1 (single isomer, unassigned)" measured_value="70 to 90%"
compound="C#Cc1ccc(CNC(=O)[C@@H]2C[C@@H](O)CN2C(=O)[C@@H](NC(=O)[C@H]2CC3(C2)C[C@H](c2cnc(N4CCC(N5CCN6c7cc(-c8ccccc8O)nnc7NC[C@H]6C5)CC4)nc2)C3)C(C)(C)C)cc1 (single isomer, unassigned)" measured_value="> 90%"
compound=C#Cc1ccc(CNC(=O)[C@@H]2C[C@@H](O)CN2C(=O)[C@@H](NC(=O)N2CC3(CC(N4CCC(c5cnc(N6CCc7[nH]c8nnc(-c9ccccc9O)cc8c7[C@H]6C)nc5)CC4)C3)C2)C(C)(C)C)cc1OC measured_value="70 to 90%"
compound=C#Cc1ccc(CNC(=O)[C@@H]2C[C@@H](O)CN2C(=O)[C@@H](N(C)C(=O)N2CC3(CC(N4CCC(c5cnc(N6CCc7[nH]c8nnc(-c9ccccc9O)cc8c7[C@H]6C)nc5)CC4)C3)C2)C(C)(C)C)cc1 measured_value="< 50%"
compound="Cc1ncsc1-c1ccc(CNC(=O)[C@@H]2C[C@@H](O)CN2C(=O)[C@@H](NC(=O)C2(F)CC2)C(C)(C)C)c(O[C@H]2CC[C@@H](N3CCC(c4cnc(N5CCc6[nH]c7nnc(-c8ccccc8O)cc7c6[C@H]5C)nc4)CC3)CC2)c1 (single isomer, unassigned)" measured_value="70 to 90%"
compound="C#Cc1ccc(CNC(=O)[C@@H]2C[C@@H](O)CN2C(=O)[C@@H](NC(=O)[C@H]2CCC3(CC2)C[C@H](N2CCC(c4cnc(N5CCN6c7cc(-c8cccc(Cl)c8O)nnc7NC[C@@H]6C5)nc4)CC2)C3)C(C)(C)C)cc1 (single isomer, unassigned)" measured_value="70 to 90%"
compound="C#Cc1ccc([C@H](C)NC(=O)[C@@H]2C[C@@H](O)CN2C(=O)[C@@H](NC(=O)[C@H]2CC3(C2)C[C@H](c2cnc(N4CCC(N5CCN6c7cc(-c8ccccc8O)nnc7NC[C@H]6C5)CC4)nc2)C3)C(C)(C)C)cc1 (some centres unmarked)" measured_value="70 to 90%"
compound="C#Cc1ccc([C@H](C)NC(=O)[C@@H]2C[C@@H](O)CN2C(=O)C(c2cc(N3CCC(N4CCC(N5CCC(CN6CCN7c8cc(-c9ccccc9O)nnc8NC[C@H]7C6)CC5)CC4)CC3)no2)C(C)C)cc1 (some centres unmarked)" measured_value="> 90%"

---

Items are presented alongside their recorded Dmax.
Molecular target: SMARCA4 (Homo sapiens, UniProt P51532)
Construct: SMARCA2/SMARCA4 protein degradation selectivity in MV4-11 cells; endogenous in cells; host or cells: MV4-11
Sequence (P51532 whole entry): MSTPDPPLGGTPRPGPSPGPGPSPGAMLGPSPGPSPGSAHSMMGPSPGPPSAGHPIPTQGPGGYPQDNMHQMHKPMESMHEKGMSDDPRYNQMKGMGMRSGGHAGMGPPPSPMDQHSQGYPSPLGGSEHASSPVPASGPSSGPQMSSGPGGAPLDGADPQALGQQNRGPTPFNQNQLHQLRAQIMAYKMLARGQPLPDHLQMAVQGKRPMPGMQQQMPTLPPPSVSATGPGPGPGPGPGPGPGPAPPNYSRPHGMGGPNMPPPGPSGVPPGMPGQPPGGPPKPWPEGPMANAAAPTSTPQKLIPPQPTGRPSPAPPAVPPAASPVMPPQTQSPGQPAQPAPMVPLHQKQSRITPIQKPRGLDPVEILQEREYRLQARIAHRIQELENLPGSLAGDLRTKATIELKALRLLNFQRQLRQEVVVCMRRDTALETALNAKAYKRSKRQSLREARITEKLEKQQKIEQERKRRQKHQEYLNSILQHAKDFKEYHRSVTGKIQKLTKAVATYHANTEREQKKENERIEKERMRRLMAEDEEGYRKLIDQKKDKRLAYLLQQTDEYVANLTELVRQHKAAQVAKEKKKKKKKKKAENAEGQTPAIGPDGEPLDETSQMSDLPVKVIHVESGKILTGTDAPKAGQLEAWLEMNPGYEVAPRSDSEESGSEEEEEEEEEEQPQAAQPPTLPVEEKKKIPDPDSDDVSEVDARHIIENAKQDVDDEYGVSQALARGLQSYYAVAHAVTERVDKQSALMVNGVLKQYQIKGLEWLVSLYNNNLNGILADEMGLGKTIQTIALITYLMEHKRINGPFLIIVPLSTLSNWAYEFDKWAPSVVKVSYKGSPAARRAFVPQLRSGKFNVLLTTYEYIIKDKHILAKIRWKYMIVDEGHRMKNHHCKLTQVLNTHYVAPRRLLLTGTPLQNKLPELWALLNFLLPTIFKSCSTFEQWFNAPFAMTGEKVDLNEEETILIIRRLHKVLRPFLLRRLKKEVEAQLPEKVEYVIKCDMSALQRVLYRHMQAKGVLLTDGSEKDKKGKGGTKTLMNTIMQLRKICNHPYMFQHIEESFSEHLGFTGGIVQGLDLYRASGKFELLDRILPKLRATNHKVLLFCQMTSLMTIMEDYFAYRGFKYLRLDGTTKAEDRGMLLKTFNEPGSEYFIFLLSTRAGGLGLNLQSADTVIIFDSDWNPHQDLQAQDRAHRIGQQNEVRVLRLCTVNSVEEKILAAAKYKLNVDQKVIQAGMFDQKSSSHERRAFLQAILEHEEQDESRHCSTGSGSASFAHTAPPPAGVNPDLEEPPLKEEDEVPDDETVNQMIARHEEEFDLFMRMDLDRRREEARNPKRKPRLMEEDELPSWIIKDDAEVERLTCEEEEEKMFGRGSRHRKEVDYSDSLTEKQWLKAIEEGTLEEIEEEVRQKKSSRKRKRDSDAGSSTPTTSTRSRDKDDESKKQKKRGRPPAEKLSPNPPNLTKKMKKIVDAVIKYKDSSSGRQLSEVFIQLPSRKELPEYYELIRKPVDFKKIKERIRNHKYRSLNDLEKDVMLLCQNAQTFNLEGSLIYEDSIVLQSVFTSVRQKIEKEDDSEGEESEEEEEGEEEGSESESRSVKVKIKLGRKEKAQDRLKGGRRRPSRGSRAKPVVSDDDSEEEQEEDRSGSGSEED
Experiment: SMARCA4 Western blot degradation in MV4-11 cells
Assay type: cell-based
Conditions: MV4-11, MV4-11 cells, 24 h; read-out: SMARCA4 MSD MV411 degradation 24 h: average Dmax %
Measured attribute: Dmax

compound="Cc1ncsc1-c1ccc(CNC(=O)[C@@H]2C[C@@H](O)CN2C(=O)C(c2cc(N3CCC4(CC3)CC(N3CCC(c5cnc(N6CCc7[nH]c8nnc(-c9ccccc9O)cc8c7[C@H]6C)nc5)CC3)C4)no2)C(C)C)cc1 (stereo partly shown) [I-13]" test_target="SMARCA4 (Homo sapiens, UniProt P51532)" measured_value="> 90%"
compound="C#Cc1ccc(CNC(=O)[C@@H]2C[C@@H](O)CN2C(=O)[C@@H](NC(=O)N2CCO[C@H](CN3CCC(N4CCC(N5CCN6c7cc(-c8ccccc8O)nnc7NC[C@H]6C5)CC4)CC3)C2)C(C)(C)C)cc1 [I-219]" test_target="SMARCA4 (Homo sapiens, UniProt P51532)" measured_value="< 50%"
compound="C#Cc1cnc(CNC(=O)[C@@H]2C[C@@H](O)CN2C(=O)[C@@H](NC(=O)[C@H]2CC3(C2)C[C@H](N2CCC(N4CCC(N5CCN6c7cc(-c8ccccc8O)nnc7NC[C@H]6C5)CC4)CC2)C3)C(C)(C)C)c(OC)c1 (single isomer, unassigned) [I-330]" test_target="SMARCA4 (Homo sapiens, UniProt P51532)" measured_value="< 50%"
compound="C#Cc1ccc(CNC(=O)[C@@H]2C[C@@H](O)CN2C(=O)[C@@H](NC(=O)[C@H]2CCC3(CC2)C[C@H](N2CCC(c4cnc(N5CCN6c7cc(-c8ccccc8O)nnc7NC[C@H]6C5)nc4)CC2)C3)C(C)(C)C)c(OCCCOC)c1 (single isomer, unassigned) [I-130]" test_target="SMARCA4 (Homo sapiens, UniProt P51532)" measured_value="> 90%"

---

Target: SMARCA2 (Homo sapiens, UniProt P51531)
Assay: MSD SMARCA2 degradation in A549 cell line
Format: cell-based
Settings: A549, A549 cells, 24 h
Measured attribute: Dmax

compound="C#Cc1ccc(CNC(=O)[C@@H]2C[C@@H](O)CN2C(=O)[C@@H](NC(=O)CCCN2CCC(N3CC4(CC(N5CCN6c7cc(-c8ccccc8O)nnc7NC[C@H]6C5)C4)C3)CC2)C(C)(C)C)cc1 (single isomer, unassigned)" measured_attribute=Dmax measured_value="> 90%"
compound="C#Cc1ccc(CNC(=O)[C@@H]2C[C@@H](O)CN2C(=O)[C@@H](NC(=O)[C@H]2CCC3(CC2)C[C@H](N2CCN(c4cnc(N5CCN6c7cc(-c8ccccc8O)nnc7NC[C@H]6C5)nc4)CC2)C3)C(C)(C)C)c(OC)c1 (single isomer, unassigned)" measured_attribute=Dmax measured_value="> 90%"
compound="C#Cc1ccc(CNC(=O)[C@@H]2C[C@@H](O)CN2C(=O)[C@@H](NC(=O)[C@H]2CC3(C2)C[C@H](N2CCC(N4CCC(N5CCN6c7cc(-c8ccccc8O)nnc7NC[C@H]6C5)CC4)CC2)C3)C(C)(C)C)c(O)c1 (single isomer, unassigned)" measured_attribute=Dmax measured_value="> 90%"
compound=C#Cc1ccc(CNC(=O)[C@@H]2C[C@@H](O)CN2C(=O)[C@@H](NC(=O)N2CC3(CC(CN4CCC(c5cnc(N6CCc7[nH]c8nnc(-c9ccccc9O)cc8c7[C@H]6C)nc5)CC4)C3)C2)C(C)(C)C)cc1 measured_attribute=Dmax measured_value="> 90%"
compound=C#Cc1ccc(CNC(=O)[C@@H]2C[C@@H](O)CN2C(=O)[C@@H](NC(=O)N2CCN(CC3CCN(c4cnc(N5CCc6[nH]c7nnc(-c8ccccc8O)cc7c6[C@@H]5C)nc4)CC3)CC2)C(C)(C)C)cc1 measured_attribute=Dmax measured_value="> 90%"
compound="C#Cc1ccc(CNC(=O)[C@@H]2C[C@@H](O)CN2C(=O)[C@@H](NC(=O)C2CCC3(CC2)CC(N2CCC(c4cnc(N5CCN6c7cc(-c8ccccc8O)nnc7NC[C@H]6C5)nc4)CC2)C3)C2CCNCC2)cc1 (stereo partly drawn)" measured_attribute=Dmax measured_value="< 50%"
compound="C#Cc1ccc(CNC(=O)[C@@H]2C[C@@H](O)CN2C(=O)[C@@H](NC(=O)N2CC3(CC(N4CCC(c5cnc(N6CCc7[nH]c8nnc(-c9ccccc9O)cc8c7[C@H]6C)nc5)CC4)C3)C2)C(C)(C)CCN2CCOCC2)cc1 (single isomer, unassigned)" measured_attribute=Dmax measured_value="< 50%"
compound=C#Cc1ccc(CNC(=O)[C@@H]2C[C@@H](O)CN2C(=O)[C@@H](NC(=O)N2CCO[C@@H](CN3CCC(N4CCC(N5CCN6c7cc(-c8ccccc8O)nnc7NC[C@H]6C5)CC4)CC3)C2)C(C)(C)C)cc1 measured_attribute=Dmax measured_value="50 to 70%"
compound="Cc1ncsc1-c1ccc(CNC(=O)[C@@H]2C[C@@H](O)CN2C(=O)[C@@H](NC(=O)C2(F)CC2)C(C)(C)C)c(OCCN2CCC(c3cnc(N4CCN5c6cc(-c7ccccc7O)nnc6NC[C@H]5C4)nc3)CC2)c1 (single isomer, unassigned)" measured_attribute=Dmax measured_value="> 90%"
